# Experiment Description: Plasma pharmacokinetics and brain distribution after single IV, IP and oral administration
# Assay type: in vivo
# Condition Description: male, C57BL/6, mouse, in vivo, iv, 10 mg/kg, Mean brain conc.
Counter-ions that a name gives are not always drawn.
Experimental Readout: concentration at 0.35 h (ng/g)
Your answer should be a plain number; it is taken to be in ng/g.

Which concentration at 0.35 h is reported for this compound? Cc1nc2ccccn2c1-c1csc(Nc2ccc3c(c2)OC(F)(F)O3)n1 [Compound 16, hydrochloride]
514

----------
# Experiment Description: Plasma pharmacokinetics and brain distribution after single IV, IP and oral administration
# Format: in vivo
# Condition Description: male, C57BL/6, mouse, in vivo, iv, 2 mg/kg, Brain concentration, individual animal
Structures can show the parent of a compound that is named as a salt.
Experimental Readout: concentration at 0.35 h (ng/g)
Your answer should be a plain number; it is taken to be in ng/g.

Which concentration at 0.35 h is reported for this compound? [2H]C([2H])([2H])Oc1ccc(Nc2nc(-c3c(C)nc4ccccn34)cs2)cc1 [Compound 15, hydrochloride]
270

----------
# Experiment Description: Plasma pharmacokinetics and brain distribution after single IV, IP and oral administration
# Format: in vivo
# Condition Description: male, C57BL/6, mouse, in vivo, ip, 10 mg/kg, Brain concentration, individual animal
Where a name gives a salt, the structure may show the parent alone.
Experimental Readout: concentration at 24 h (ng/g)
Your answer should be a plain number; it is taken to be in ng/g.

Some solved cases for reference:
Which concentration at 24 h is reported for this compound? [2H]C([2H])([2H])Oc1ccc(Nc2nc(-c3c(C)nc4ccccn34)cs2)cc1 [Compound 15, hydrochloride]
0

Please do the same for [2H]C1([2H])Oc2ccc(Nc3nc(-c4c(C)nc5ccccn45)cs3)cc2O1 [Compound 17, hydrochloride] as well.
0

Let us examine a further case.
Which concentration at 24 h is reported for this compound? Cc1nc2ccccn2c1-c1csc(Nc2ccc3c(c2)OC(F)(F)O3)n1 [Compound 16, hydrochloride]
0

----------
Below, each of the molecules is paired with its reported concentration at 3 h value.
# Experiment Description: Plasma pharmacokinetics and brain distribution after single IV, IP and oral administration
# Type: in vivo
# Condition Description: male, C57BL/6, mouse, in vivo, po, 10 mg/kg, Mean brain conc.
Structures can show the parent of a compound that is named as a salt.
Your answer should be a plain number; it is taken to be in ng/g.

Which concentration at 3 h is reported for this molecule? Cc1nc2ccccn2c1-c1csc(Nc2ccc3c(c2)OC(F)(F)O3)n1 [Compound 16, hydrochloride]
5.78

Please do the same for [2H]C([2H])([2H])Oc1ccc(Nc2nc(-c3c(C)nc4ccccn34)cs2)cc1 [Compound 15, hydrochloride] as well.
66

Please do the same for [2H]C1([2H])Oc2ccc(Nc3nc(-c4c(C)nc5ccccn45)cs3)cc2O1 [Compound 17, hydrochloride] as well.
20.5

----------
# Experiment Description: Plasma pharmacokinetics and brain distribution after single IV, IP and oral administration
# Type: in vivo
# Condition Description: male, C57BL/6, mouse, in vivo, iv, 2 mg/kg, Mean plasma conc.
Where a name gives a salt, the structure may show the parent alone.
Below, each of the molecules is paired with its reported concentration at 12 h value.
Your answer should be a plain number; it is taken to be in ng/mL.

Which concentration at 12 h is reported for this molecule? [2H]C1([2H])Oc2ccc(Nc3nc(-c4c(C)nc5ccccn45)cs3)cc2O1 [Compound 17, hydrochloride]
0

Let us examine a further case.
Which concentration at 12 h is reported for this molecule? [2H]C([2H])([2H])Oc1ccc(Nc2nc(-c3c(C)nc4ccccn34)cs2)cc1 [Compound 15, hydrochloride]
0

----------
# Experiment Description: Plasma pharmacokinetics and brain distribution after single IV, IP and oral administration
# Format: in vivo
# Condition Description: male, C57BL/6, mouse, in vivo, ip, 10 mg/kg, Brain concentration, individual animal
Where a name gives a salt, the structure may show the parent alone.
Experimental Readout: concentration at 12 h (ng/g)
Your answer should be a plain number; it is taken to be in ng/g.

Some solved cases for reference:
Which concentration at 12 h is reported for this compound? [2H]C([2H])([2H])Oc1ccc(Nc2nc(-c3c(C)nc4ccccn34)cs2)cc1 [Compound 15, hydrochloride]
0

Please do the same for [2H]C1([2H])Oc2ccc(Nc3nc(-c4c(C)nc5ccccn45)cs3)cc2O1 [Compound 17, hydrochloride] as well.
0

Next:
Which concentration at 12 h is reported for this compound? Cc1nc2ccccn2c1-c1csc(Nc2ccc3c(c2)OC(F)(F)O3)n1 [Compound 16, hydrochloride]
0

----------
# Tested on: mice plasma
# Experiment Description: in vitro
# Format: in vitro ADME
# Condition Description: mouse, plasma, 4 h, 5 μM
Counter-ions that a name gives are not always drawn.
Below, each of the compounds is paired with its reported % compound remaining at 4 hrs value.

Some solved cases for reference:
Which % compound remaining at 4 hrs is reported for this compound? [2H]C([2H])([2H])Oc1ccc(Nc2nc(-c3c(C)nc4ccccn34)cs2)cc1 [Compound 15, hydrochloride]
90%

Please do the same for COc1c(F)cc(Nc2nc(-c3c(C)nc4ccccn34)cs2)cc1F [Compound 14, hydrochloride] as well.
76%

Please do the same for [2H]C1([2H])Oc2ccc(Nc3nc(-c4c(C)nc5ccccn45)cs3)cc2O1 [Compound 17, hydrochloride] as well.
75%

Please do the same for CC(=O)CC(c1ccccc1)c1c(O)c2ccccc2oc1=O (centres unmarked) [Warfarin, reference compound] as well.
94%

Let us examine a further case.
Which % compound remaining at 4 hrs is reported for this compound? Cc1nc2ccccn2c1-c1csc(Nc2ccc3c(c2)OC(F)(F)O3)n1 [Compound 16, hydrochloride]
76%

----------
# Experiment Description: Plasma pharmacokinetics and brain distribution after single IV, IP and oral administration
# Format: in vivo
# Condition Description: male, C57BL/6, mouse, in vivo, po, 10 mg/kg, Brain concentration, individual animal
Counter-ions that a name gives are not always drawn.
Experimental Readout: concentration at 1 h (ng/g)
Your answer should be a plain number; it is taken to be in ng/g.

Which concentration at 1 h is reported for this compound? [2H]C([2H])([2H])Oc1ccc(Nc2nc(-c3c(C)nc4ccccn34)cs2)cc1 [Compound 15, hydrochloride]
190

----------
# Experiment Description: Plasma pharmacokinetics and brain distribution after single IV, IP and oral administration
# Assay type: in vivo
# Condition Description: male, C57BL/6, mouse, in vivo, ip, 10 mg/kg, Mean plasma conc.
Counter-ions that a name gives are not always drawn.
Below, each of the compounds is paired with its reported concentration at 0.08 h value.
Answer format: value, then unit.

Which concentration at 0.08 h is reported for this compound? [2H]C([2H])([2H])Oc1ccc(Nc2nc(-c3c(C)nc4ccccn34)cs2)cc1 [Compound 15, hydrochloride]
229 ng/mL

Let us examine a further case.
Which concentration at 0.08 h is reported for this compound? Cc1nc2ccccn2c1-c1csc(Nc2ccc3c(c2)OC(F)(F)O3)n1 [Compound 16, hydrochloride]
713 ng/mL

----------
# Experiment Description: in vitro
# Condition Description: mouse, microsomes, 60 min, 1 μM, pH 7.4
Structures can show the parent of a compound that is named as a salt.
Experimental Readout: Metabolic stability in liver microsomes, compound remaining

Some solved cases for reference:
Which Metabolic stability in liver microsomes, compound remaining is reported for this compound? [2H]C([2H])([2H])Oc1ccc(Nc2nc(-c3c(C)nc4ccccn34)cs2)cc1 [Compound 15, hydrochloride]
< 50%

Please do the same for [2H]C1([2H])Oc2ccc(Nc3nc(-c4c(C)nc5ccccn45)cs3)cc2O1 [Compound 17, hydrochloride] as well.
< 50%

Please do the same for Cc1nc2ccccn2c1-c1csc(Nc2ccc3c(c2)OC(F)(F)O3)n1 [Compound 16, hydrochloride] as well.
< 50%

Let us examine a further case.
Which Metabolic stability in liver microsomes, compound remaining is reported for this compound? COc1c(F)cc(Nc2nc(-c3c(C)nc4ccccn34)cs2)cc1F [Compound 14, hydrochloride]
< 50%

----------
# Experiment Description: Plasma pharmacokinetics and brain distribution after single IV, IP and oral administration
# Format: in vivo
# Condition Description: male, C57BL/6, mouse, in vivo, ip, 10 mg/kg, Plasma concentration, individual animal
Where a name gives a salt, the structure may show the parent alone.
Below, each of the compounds is paired with its reported concentration at 1 h value.
Your answer should be a plain number; it is taken to be in ng/mL.

Which concentration at 1 h is reported for this compound? [2H]C([2H])([2H])Oc1ccc(Nc2nc(-c3c(C)nc4ccccn34)cs2)cc1 [Compound 15, hydrochloride]
563

Next:
Which concentration at 1 h is reported for this compound? Cc1nc2ccccn2c1-c1csc(Nc2ccc3c(c2)OC(F)(F)O3)n1 [Compound 16, hydrochloride]
62

Please do the same for [2H]C1([2H])Oc2ccc(Nc3nc(-c4c(C)nc5ccccn45)cs3)cc2O1 [Compound 17, hydrochloride] as well.
223
